# System: 967376-340-R-J2-PDC multicell spheroid viability
# protocol-details: Anticancer human tumor 967376-340-R-J2-PDC patient-derived colon adenocarcinoma cell line growth inhibition [PI3K]
# condition-context: second compound 3.16 µM; first compound 0.001 µM; stronger effect = lower value
Decide using viability, T/C alone. Strictly below 70%: MET. Equal to or above 70%: NOT MET.

compound: CC(C)n1nc(-c2ccc3oc(N)nc3c2)c2c(N)ncnc21 + CC(Nc1ncnc2nc[nH]c12)c1cc2cccc(Cl)c2c(=O)n1-c1ccccc1
category-label: NOT MET

compound: Cn1ncnc1[C@H]1c2n[nH]c(=O)c3cc(F)cc(c23)N[C@@H]1c1ccc(F)cc1 + CC(Nc1ncnc2nc[nH]c12)c1cc2cccc(Cl)c2c(=O)n1-c1ccccc1
category-label: NOT MET

compound: CC(C)n1nc(-c2ccc3oc(N)nc3c2)c2c(N)ncnc21 + Cc1nc(NC(=O)N2CCCC2C(N)=O)sc1-c1ccnc(C(C)(C)C(F)(F)F)c1
category-label: MET

compound: Cn1ncnc1[C@H]1c2n[nH]c(=O)c3cc(F)cc(c23)N[C@@H]1c1ccc(F)cc1 + Cc1nc(NC(=O)N2CCCC2C(N)=O)sc1-c1ccnc(C(C)(C)C(F)(F)F)c1
category-label: MET

compound: CC(=O)c1c(C)c2cnc(Nc3ccc(N4CCNCC4)cn3)nc2n(C2CCCC2)c1=O + CC(Nc1ncnc2nc[nH]c12)c1cc2cccc(Cl)c2c(=O)n1-c1ccccc1
category-label: NOT MET

###

# Test system: 967376-340-R-J2-PDC multicell spheroid viability
# protocol-details: Anticancer human tumor 967376-340-R-J2-PDC cell line growth inhibition [PI3K];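 note: luminescence used as surrogate of cell viability; spheroids exposed to agents for 7 days before read-out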
# condition-context: second compound 0.1 µM; first compound 0.000316 µM; stronger effect = lower value
# viability, T/C annotations

molecule: CC(C)n1nc(-c2ccc3oc(N)nc3c2)c2c(N)ncnc21 + Cc1nc(NC(=O)N2CCCC2C(N)=O)sc1-c1ccnc(C(C)(C)C(F)(F)F)c1
viability, T/C [%]: 84.1
//
molecule: Cn1ncnc1[C@H]1c2n[nH]c(=O)c3cc(F)cc(c23)N[C@@H]1c1ccc(F)cc1 + COc1c(OCCCN2CCOCC2)ccc2c3n(c(=NC(=O)c4cnc(N)nc4)nc12)CCN3
viability, T/C [%]: 53.3
//
molecule: CC(=O)c1c(C)c2cnc(Nc3ccc(N4CCNCC4)cn3)nc2n(C2CCCC2)c1=O + Cc1nc(NC(=O)N2CCCC2C(N)=O)sc1-c1ccnc(C(C)(C)C(F)(F)F)c1
viability, T/C [%]: 105
//
molecule: CC(=O)c1c(C)c2cnc(Nc3ccc(N4CCNCC4)cn3)nc2n(C2CCCC2)c1=O + CC(Nc1ccc2c(c1)OCCn1cc(N3C(=O)OCC3C(F)F)nc1-2)C(N)=O
viability, T/C [%]: 87.9
//
molecule: CC(C)n1nc(-c2ccc3oc(N)nc3c2)c2c(N)ncnc21 + CC(Nc1ncnc2nc[nH]c12)c1cc2cccc(Cl)c2c(=O)n1-c1ccccc1
viability, T/C [%]: 90.1
//
molecule: Cn1ncnc1[C@H]1c2n[nH]c(=O)c3cc(F)cc(c23)N[C@@H]1c1ccc(F)cc1 + CC(Nc1ncnc2nc[nH]c12)c1cc2cccc(Cl)c2c(=O)n1-c1ccccc1
viability, T/C [%]: 103

###

# Tested on: 967376-340-R-J2-PDC multicell spheroid viability
# protocol-details: Anticancer human tumor 967376-340-R-J2-PDC cell line growth inhibition [PI3K];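 note: luminescence used as surrogate of cell viability; spheroids exposed to agents for 7 days before read-out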
# condition-context: second compound 1 µM; first compound 0.00316 µM; stronger effect = lower value
# Text: Combinatorial screen of targeted agents with the PI3K inhibitors inavolisib, alpelisib, duvelisib, and copanlisib in multi-cell type tumor spheroids A high-throughput screen of multi-cell type tumor spheroids was designed to identify active combinations of targeted small molecules and PI3K pathway inhibitors. […] Compounds. […] If the clinical Cmax for an agent had not been determined, the highest concentration tested was 10 microM. […]
# viability, T/C annotations

compound: CC(C)n1nc(-c2ccc3oc(N)nc3c2)c2c(N)ncnc21 + COc1c(OCCCN2CCOCC2)ccc2c3n(c(=NC(=O)c4cnc(N)nc4)nc12)CCN3
viability, T/C (%): 32.1
//
compound: CCN1CCN(Cc2ccc(Nc3ncc(F)c(-c4cc(F)c5nc(C)n(C(C)C)c5c4)n3)nc2)CC1 + Cc1nc(NC(=O)N2CCCC2C(N)=O)sc1-c1ccnc(C(C)(C)C(F)(F)F)c1
viability, T/C (%): 56
//
compound: CC(=O)c1c(C)c2cnc(Nc3ccc(N4CCNCC4)cn3)nc2n(C2CCCC2)c1=O + CC(Nc1ncnc2nc[nH]c12)c1cc2cccc(Cl)c2c(=O)n1-c1ccccc1
viability, T/C (%): 91
//
compound: CC(C)n1nc(-c2ccc3oc(N)nc3c2)c2c(N)ncnc21 + CC(Nc1ccc2c(c1)OCCn1cc(N3C(=O)OCC3C(F)F)nc1-2)C(N)=O
viability, T/C (%): 63.8
//
compound: CC(C)n1nc(-c2ccc3oc(N)nc3c2)c2c(N)ncnc21 + CC(Nc1ncnc2nc[nH]c12)c1cc2cccc(Cl)c2c(=O)n1-c1ccccc1
viability, T/C (%): 89.9
//
compound: CC(C)n1nc(-c2ccc3oc(N)nc3c2)c2c(N)ncnc21 + Cc1nc(NC(=O)N2CCCC2C(N)=O)sc1-c1ccnc(C(C)(C)C(F)(F)F)c1
viability, T/C (%): 59.3
//
compound: Cn1ncnc1[C@H]1c2n[nH]c(=O)c3cc(F)cc(c23)N[C@@H]1c1ccc(F)cc1 + Cc1nc(NC(=O)N2CCCC2C(N)=O)sc1-c1ccnc(C(C)(C)C(F)(F)F)c1
viability, T/C (%): 71.8
//
compound: CC(=O)c1c(C)c2cnc(Nc3ccc(N4CCNCC4)cn3)nc2n(C2CCCC2)c1=O + Cc1nc(NC(=O)N2CCCC2C(N)=O)sc1-c1ccnc(C(C)(C)C(F)(F)F)c1
viability, T/C (%): 88.7
//
compound: CCN1CCN(Cc2ccc(Nc3ncc(F)c(-c4cc(F)c5nc(C)n(C(C)C)c5c4)n3)nc2)CC1 + CC(Nc1ncnc2nc[nH]c12)c1cc2cccc(Cl)c2c(=O)n1-c1ccccc1
viability, T/C (%): 111
//
compound: CC(=O)c1c(C)c2cnc(Nc3ccc(N4CCNCC4)cn3)nc2n(C2CCCC2)c1=O + COc1c(OCCCN2CCOCC2)ccc2c3n(c(=NC(=O)c4cnc(N)nc4)nc12)CCN3
viability, T/C (%): 34.8
//
compound: Cn1ncnc1[C@H]1c2n[nH]c(=O)c3cc(F)cc(c23)N[C@@H]1c1ccc(F)cc1 + COc1c(OCCCN2CCOCC2)ccc2c3n(c(=NC(=O)c4cnc(N)nc4)nc12)CCN3
viability, T/C (%): 39.8
//
compound: CCN1CCN(Cc2ccc(Nc3ncc(F)c(-c4cc(F)c5nc(C)n(C(C)C)c5c4)n3)nc2)CC1 + COc1c(OCCCN2CCOCC2)ccc2c3n(c(=NC(=O)c4cnc(N)nc4)nc12)CCN3
viability, T/C (%): 42.2
//
compound: CC(=O)c1c(C)c2cnc(Nc3ccc(N4CCNCC4)cn3)nc2n(C2CCCC2)c1=O + CC(Nc1ccc2c(c1)OCCn1cc(N3C(=O)OCC3C(F)F)nc1-2)C(N)=O
viability, T/C (%): 77.8
//
compound: CCN1CCN(Cc2ccc(Nc3ncc(F)c(-c4cc(F)c5nc(C)n(C(C)C)c5c4)n3)nc2)CC1 + CC(Nc1ccc2c(c1)OCCn1cc(N3C(=O)OCC3C(F)F)nc1-2)C(N)=O
viability, T/C (%): 59.4
//
compound: Cn1ncnc1[C@H]1c2n[nH]c(=O)c3cc(F)cc(c23)N[C@@H]1c1ccc(F)cc1 + CC(Nc1ncnc2nc[nH]c12)c1cc2cccc(Cl)c2c(=O)n1-c1ccccc1
viability, T/C (%): 87.2
